- System: L. amazonensis intracellular amastigotes
- assay overview: In vitro leishmanicidal activity on L. amazonensis intracellular amastigotes
- Type: cell-based, Leishmania amazonensis
- cond: Leishmania amazonensis; intracellular amastigotes; ± SD
result type: IC50 (µM)
One number for each entry, in µM.

compound: CC(C)=CCCC(C)=CC=NNc1ccc([N+](=O)[O-])cc1[N+](=O)[O-] [Compound 9, citral 2,4-dinitrophenylhydrazone]
unit info: µM
observed: 21.4

compound: CCCCCCCCCCCCCCCCOP(=O)([O-])OCC[N+](C)(C)C [Miltefosine, reference compound]
unit info: µM
observed: 3.12

Then this compound:
q: Check L. amazonensis intracellular amastigotes data and give IC50 for CC(C)=CCC/C(C)=C/C=NO .
a: 56.9
